Source of measurements: patent US5025033A

target: Acetylcholinesterase (Rattus norvegicus); construct: the S1 fraction of a male Wistar rat cerebral cortex homogenate was used as a cholinesterase source; from tissue; host or cells: male Wistar rat cerebral cortex homogenate, S1 fraction; assay: Acetylcholinesterase inhibiting activity using (acetyl-[3H])-acetylcholine, S1 fraction of rat cerebral cortex homogenate; type: biochemical, male Wistar rat; settings: rat cerebral cortex homogenate S1 fraction; 30 minutes of incubation; read-out: Acetylcholinesterase inhibiting activity IC50
Sequence (P37136 32-614): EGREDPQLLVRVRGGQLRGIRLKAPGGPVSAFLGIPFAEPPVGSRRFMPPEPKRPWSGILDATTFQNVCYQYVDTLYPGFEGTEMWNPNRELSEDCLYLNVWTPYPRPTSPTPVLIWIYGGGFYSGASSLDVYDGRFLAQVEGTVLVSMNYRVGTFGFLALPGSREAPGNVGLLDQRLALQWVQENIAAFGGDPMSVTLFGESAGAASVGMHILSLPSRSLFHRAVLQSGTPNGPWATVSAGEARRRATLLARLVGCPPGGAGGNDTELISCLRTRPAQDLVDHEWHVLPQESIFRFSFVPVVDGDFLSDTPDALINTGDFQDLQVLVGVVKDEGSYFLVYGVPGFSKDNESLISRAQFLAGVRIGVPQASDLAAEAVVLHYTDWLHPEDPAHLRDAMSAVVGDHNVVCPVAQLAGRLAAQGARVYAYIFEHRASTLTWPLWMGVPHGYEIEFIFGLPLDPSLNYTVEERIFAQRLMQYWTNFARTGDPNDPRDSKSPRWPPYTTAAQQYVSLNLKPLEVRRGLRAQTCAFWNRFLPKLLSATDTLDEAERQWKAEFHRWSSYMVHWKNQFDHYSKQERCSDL
Counter-ions that a name gives are not always drawn.
Answer each item with its documented IC50.
Could you kindly put the unit after your number?

Ask | Fill blank: measured IC50 of the molecule CCN(CCCCCN1C(=O)c2ccc(C(=O)c3ccccc3)cc2C1=O)Cc1ccccc1 [Compound 12-10] is ____.
Reply | 1.1 µM

Ask | Fill blank: measured IC50 of the molecule CCN(CCCCCN(C(C)=O)C(=O)/C=C/c1ccc(C#N)cc1)Cc1ccccc1 [Compound 16-6] is ____.
Reply | 0.46 µM

Ask | Fill blank: measured IC50 of the molecule CCN(CCCCCN1C(=O)c2ccc(NC(=O)Cc3ccccc3)cc2C1=O)Cc1ccccc1 [Compound 11-3] is ____.
Reply | 1.5 µM

Ask | Fill blank: measured IC50 of the molecule CCOC(=O)c1ccc2c(c1)C(=O)N(CCCCCN(CC)Cc1ccccc1)C2=O [Compound 17] is ____.
Reply | 0.68 µM

Ask | Fill blank: measured IC50 of the molecule CCN(CCCCCN1C(=O)c2ccc(NS(=O)(=O)Cc3ccccc3)cc2C1=O)Cc1ccccc1 [Compound 11-5] is ____.
Reply | 0.24 µM

Ask | Fill blank: measured IC50 of the molecule O=C1c2ccc([N+](=O)[O-])cc2C(=O)N1CCCCN1CCc2ccccc2C1 [Compound 2-6] is ____.
Reply | 18 µM

Ask | Fill blank: measured IC50 of the molecule CCN(CCCCCNC(=O)/C=C/c1ccc(Cl)cc1)Cc1ccccc1 [Compound 14-14] is ____.
Reply | 16 µM

Ask | Fill blank: measured IC50 of the molecule CCN(CCCCCNC(=O)/C=C/c1cccc(OC)c1)Cc1ccccc1 [Compound 14-19] is ____.
Reply | 9.3 µM

Ask | Fill blank: measured IC50 of the molecule CN(CCCCN1C(=O)c2ccc(NC(=O)c3ccccc3)cc2C1=O)Cc1ccccc1 [Compound 4] is ____.
Reply | 11 µM

Ask | Fill blank: measured IC50 of the molecule CCN(CCCCCN1C(=O)c2ccc(C(=O)O)cc2C1=O)Cc1ccccc1 [Compound 12-8, hydrochloride] is ____.
Reply | 8.8 µM

Ask | Fill blank: measured IC50 of the molecule O=C1c2ccc([N+](=O)[O-])cc2C(=O)N1CCCCN(CCO)Cc1ccccc1 [Compound 2-4] is ____.
Reply | 1.5 µM

Ask | Fill blank: measured IC50 of the molecule CCN(CCCCCNC(=O)/C=C/c1ccc([N+](=O)[O-])c(O)c1)Cc1ccccc1 [Compound 14-24] is ____.
Reply | 0.17 µM

Ask | Fill blank: measured IC50 of the molecule CCN(CCCCCNC(=O)/C=C/c1ccc(N)cc1)Cc1ccccc1 [Compound 20-3] is ____.
Reply | 10 µM

Ask | Fill blank: measured IC50 of the molecule CCN(CCCCCNC(=O)/C=C/c1ccc(OC)c(OC)c1)Cc1ccccc1 [Compound 14-11] is ____.
Reply | 5.4 µM

Ask | Fill blank: measured IC50 of the molecule CCN(CCCCN(C(C)=O)C(=O)/C=C/c1ccc([N+](=O)[O-])cc1)Cc1ccccc1 [Compound 16-1] is ____.
Reply | 7.3 µM

Ask | Fill blank: measured IC50 of the molecule CCN(CCCNC(=O)/C=C/c1ccc([N+](=O)[O-])cc1)Cc1ccccc1 [Compound 14-9] is ____.
Reply | 11 µM

Ask | Fill blank: measured IC50 of the molecule CCN(CCCCCNC(=O)/C=C/c1ccc(C#N)cc1)Cc1ccccc1 [Compound 14-16] is ____.
Reply | 5 µM
